Here, each record is paired with measured Activity data.
# Assay info: Antioxidant activity assessed as DPPH radical scavenging activity at 10 uM after 30 mins by spectrophotometric analysis
# Type: functional

[
  {
    "Compound smiles": "O=C(O)Cn1c(=O)oc2c(/C=C/c3ccc(O)c(O)c3)cccc21",
    "Activity [%]": 22.7
  },
  {
    "Compound smiles": "O=C(O)Cn1c(=O)oc2c(/C=C/c3ccc(O)cc3)cccc21",
    "Activity [%]": 22.7
  },
  {
    "Compound smiles": "COc1cc(/C=C/c2cccc3c2oc(=O)n3CC(=O)O)ccc1O",
    "Activity [%]": 22.7
  },
  {
    "Compound smiles": "O=C(O)Cn1c(=O)oc2c(-c3ccc(O)c(O)c3)cccc21",
    "Activity [%]": 61.7
  },
  {
    "Compound smiles": "COc1cc(CCc2cccc3c2oc(=O)n3CC(=O)O)ccc1O",
    "Activity [%]": 22.7
  }
]

----------
# Target entity: Aldo-keto reductase family 1 member B1 (Rattus norvegicus, UniProt P07943)
Here, each record is paired with measured IC50 data.

[
  {
    "Compound smiles": "O=C(O)Cn1c(=O)oc2c(-c3ccc(-c4ccc5ccccc5c4)cc3)cccc21",
    "IC50, µM": 0.023
  },
  {
    "Compound smiles": "O=C(O)Cn1c(=O)oc2c(/C=C/c3ccc(O)c(O)c3)cccc21",
    "IC50, µM": 0.0454
  },
  {
    "Compound smiles": "O=C(O)Cn1c(=O)oc2c(-c3ccc(-c4cccc5ccccc45)cc3)cccc21",
    "IC50, µM": 0.0224
  },
  {
    "Compound smiles": "O=C(O)Cn1c(=O)oc2cc(/C=C/c3ccccc3)ccc21",
    "IC50, µM": 0.0657
  }
]

----------
# Species: Rattus norvegicus
# Assay info: Selectivity index, ratio of IC50 for Wistar rat kidney ALR1 to IC50 for Wistar rat lens ALR2
Mark Satisfied only when Ratio IC50 stays strictly below 600. Values equal to the cut-off are Not satisfied.

[
  {
    "Compound smiles": "O=C(O)Cn1c(=O)oc2c(-c3ccc(-c4cccc5ccccc45)cc3)cccc21",
    "Group label": "Not satisfied"
  },
  {
    "Compound smiles": "COc1cc(/C=C/c2cccc3c2oc(=O)n3CC(=O)O)ccc1O",
    "Group label": "Not satisfied"
  },
  {
    "Compound smiles": "COc1ccc(CCc2cccc3c2oc(=O)n3CC(=O)O)cc1",
    "Group label": "Not satisfied"
  },
  {
    "Compound smiles": "COc1ccc(-c2cccc3c2oc(=O)n3CC(=O)O)cc1OC",
    "Group label": "Satisfied"
  },
  {
    "Compound smiles": "O=C(O)Cn1c(=O)oc2cccc(/C=C/c3ccccc3)c21",
    "Group label": "Satisfied"
  },
  {
    "Compound smiles": "O=C(O)Cn1c(=O)oc2c(/C=C/c3ccc(O)cc3)cccc21",
    "Group label": "Not satisfied"
  },
  {
    "Compound smiles": "CC(C)(C)c1ccc(-c2cccc3c2oc(=O)n3CC(=O)O)cc1",
    "Group label": "Not satisfied"
  },
  {
    "Compound smiles": "O=C(O)Cn1c(=O)oc2cc(/C=C/c3ccccc3)ccc21",
    "Group label": "Satisfied"
  },
  {
    "Compound smiles": "O=C(O)Cn1c(=O)oc2c(/C=C/c3ccc(C(F)(F)F)cc3)cccc21",
    "Group label": "Not satisfied"
  },
  {
    "Compound smiles": "O=C(O)Cn1c(=O)oc2c(-c3ccc(-c4ccc5ccccc5c4)cc3)cccc21",
    "Group label": "Satisfied"
  }
]

----------
# Species: Rattus norvegicus
# Assay info: Selectivity index, ratio of IC50 for Wistar rat kidney ALR1 to IC50 for Wistar rat lens ALR2

[
  {
    "Compound smiles": "O=C(O)Cn1c(=O)oc2c(-c3ccc(CO)cc3)cccc21",
    "Ratio IC50": 1260
  },
  {
    "Compound smiles": "O=C(O)Cn1c(=O)oc2c(-c3ccc(-c4ccccc4)cc3)cccc21",
    "Ratio IC50": 82
  },
  {
    "Compound smiles": "O=C(O)Cn1c(=O)oc2c(-c3ccc(C(F)(F)F)cc3)cccc21",
    "Ratio IC50": 1480
  },
  {
    "Compound smiles": "O=C(O)Cn1c(=O)oc2c(/C=C/c3ccccc3)cccc21",
    "Ratio IC50": 31000
  },
  {
    "Compound smiles": "O=C(O)Cn1c(=O)oc2cc(/C=C/c3ccc(O)cc3)ccc21",
    "Ratio IC50": 12400
  },
  {
    "Compound smiles": "COc1cc(CCc2cccc3c2oc(=O)n3CC(=O)O)ccc1O",
    "Ratio IC50": 172
  },
  {
    "Compound smiles": "O=C(O)Cn1c(=O)oc2ccc(/C=C/c3ccccc3)cc21",
    "Ratio IC50": 77
  },
  {
    "Compound smiles": "O=C(O)Cn1c(=O)oc2c(-c3ccc(O)c(O)c3)cccc21",
    "Ratio IC50": 17
  },
  {
    "Compound smiles": "O=C(O)Cn1c(=O)oc2c(-c3ccccc3)cccc21",
    "Ratio IC50": 3000
  },
  {
    "Compound smiles": "COc1ccc(-c2cccc3c2oc(=O)n3CC(=O)O)c(OC)c1",
    "Ratio IC50": 847
  },
  {
    "Compound smiles": "COc1ccc(/C=C/c2cccc3c2oc(=O)n3CC(=O)O)cc1OC",
    "Ratio IC50": 873
  },
  {
    "Compound smiles": "O=C(O)Cn1c(=O)oc2c(/C=C/c3ccc(O)c(O)c3)cccc21",
    "Ratio IC50": 17
  },
  {
    "Compound smiles": "COc1ccc(-c2cccc3c2oc(=O)n3CC(=O)O)cc1",
    "Ratio IC50": 44
  }
]

----------
# Target entity: UniProt:P07943
pIC50: −log10 of the molar value.

[
  {
    "Compound smiles": "COc1cc(/C=C/c2cccc3c2oc(=O)n3CC(=O)O)ccc1O",
    "pIC50": 8.16
  },
  {
    "Compound smiles": "COc1ccc(-c2cccc3c2oc(=O)n3CC(=O)O)c(OC)c1",
    "pIC50": 7.07
  },
  {
    "Compound smiles": "O=C(O)Cn1c(=O)oc2c(-c3ccc(C(F)(F)F)cc3)cccc21",
    "pIC50": 8.01
  },
  {
    "Compound smiles": "O=C(O)Cn1c(=O)oc2c(-c3ccc(O)c(O)c3)cccc21",
    "pIC50": 6.41
  },
  {
    "Compound smiles": "O=C(O)Cn1c(=O)oc2ccc(/C=C/c3ccccc3)cc21",
    "pIC50": 6.65
  },
  {
    "Compound smiles": "COc1ccc(/C=C/c2cccc3c2oc(=O)n3CC(=O)O)cc1OC",
    "pIC50": 7.47
  },
  {
    "Compound smiles": "COc1cc(CCc2cccc3c2oc(=O)n3CC(=O)O)ccc1O",
    "pIC50": 7.05
  },
  {
    "Compound smiles": "O=C(O)Cn1c(=O)oc2c(/C=C/c3ccc(C(F)(F)F)cc3)cccc21",
    "pIC50": 6.84
  },
  {
    "Compound smiles": "O=C(O)Cn1c(=O)oc2c(-c3ccc(CO)cc3)cccc21",
    "pIC50": 7.61
  },
  {
    "Compound smiles": "O=C(O)Cn1c(=O)oc2c(-c3ccc(-c4ccccc4)cc3)cccc21",
    "pIC50": 7.12
  },
  {
    "Compound smiles": "O=C(O)Cn1c(=O)oc2c(-c3ccccc3)cccc21",
    "pIC50": 6.83
  }
]

----------
# Target entity: Aldo-keto reductase family 1 member A1 (Rattus norvegicus, UniProt P51635)
# Sequence (P51635 whole entry, looked up): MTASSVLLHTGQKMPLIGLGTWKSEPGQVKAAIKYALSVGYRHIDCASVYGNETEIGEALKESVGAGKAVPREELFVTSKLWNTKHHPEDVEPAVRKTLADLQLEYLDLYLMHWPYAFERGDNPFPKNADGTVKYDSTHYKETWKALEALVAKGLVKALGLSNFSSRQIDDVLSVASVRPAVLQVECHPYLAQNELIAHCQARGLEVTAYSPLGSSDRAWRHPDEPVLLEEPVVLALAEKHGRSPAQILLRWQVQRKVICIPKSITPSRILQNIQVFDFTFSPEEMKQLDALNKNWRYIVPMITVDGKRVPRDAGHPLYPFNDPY
pIC50: −log10 of the molar value.
Kind request: treat 4 as inclusive, so pIC50 at 4 or higher is rule met, anything lower is rule not met.

[
  {
    "Compound smiles": "O=C(O)Cn1c(=O)oc2cccc(/C=C/c3ccccc3)c21",
    "Target entity": "Aldo-keto reductase family 1 member A1 (Rattus norvegicus, UniProt P51635)",
    "Group label": "rule not met"
  },
  {
    "Compound smiles": "O=C(O)Cn1c(=O)oc2c(/C=C/c3ccc(O)c(O)c3)cccc21",
    "Target entity": "Aldo-keto reductase family 1 member A1 (Rattus norvegicus, UniProt P51635)",
    "Group label": "rule met"
  },
  {
    "Compound smiles": "O=C(O)Cn1c(=O)oc2cc(/C=C/c3ccc(O)cc3)ccc21",
    "Target entity": "Aldo-keto reductase family 1 member A1 (Rattus norvegicus, UniProt P51635)",
    "Group label": "rule not met"
  },
  {
    "Compound smiles": "O=C(O)Cn1c(=O)oc2c(-c3ccc(CO)cc3)cccc21",
    "Target entity": "Aldo-keto reductase family 1 member A1 (Rattus norvegicus, UniProt P51635)",
    "Group label": "rule met"
  },
  {
    "Compound smiles": "O=C(O)Cn1c(=O)oc2c(/C=C/c3ccc(O)cc3)cccc21",
    "Target entity": "Aldo-keto reductase family 1 member A1 (Rattus norvegicus, UniProt P51635)",
    "Group label": "rule met"
  },
  {
    "Compound smiles": "COc1ccc(-c2cccc3c2oc(=O)n3CC(=O)O)c(OC)c1",
    "Target entity": "Aldo-keto reductase family 1 member A1 (Rattus norvegicus, UniProt P51635)",
    "Group label": "rule met"
  },
  {
    "Compound smiles": "O=C(O)Cn1c(=O)oc2c(-c3ccc(-c4cccc5ccccc45)cc3)cccc21",
    "Target entity": "Aldo-keto reductase family 1 member A1 (Rattus norvegicus, UniProt P51635)",
    "Group label": "rule met"
  },
  {
    "Compound smiles": "COc1ccc(-c2cccc3c2oc(=O)n3CC(=O)O)cc1OC",
    "Target entity": "Aldo-keto reductase family 1 member A1 (Rattus norvegicus, UniProt P51635)",
    "Group label": "rule met"
  },
  {
    "Compound smiles": "O=C(O)Cn1c(=O)oc2c(/C=C/c3ccccc3)cccc21",
    "Target entity": "Aldo-keto reductase family 1 member A1 (Rattus norvegicus, UniProt P51635)",
    "Group label": "rule not met"
  },
  {
    "Compound smiles": "COc1cc(CCc2cccc3c2oc(=O)n3CC(=O)O)ccc1O",
    "Target entity": "Aldo-keto reductase family 1 member A1 (Rattus norvegicus, UniProt P51635)",
    "Group label": "rule met"
  }
]
